Hey, just so you know, these numbers are from PubChem BioAssay (NCI).

Parameter growth inhibition: see the listing below.
- Assay name: NCI Yeast Anticancer Drug Screen. Data for the mec2-1 strain (AID 157)
- Experimental parameters: S. cerevisiae mec2-1 strain, at 50.0 µM, hits give high values
This is part of a sample that, as a whole, favours compounds with a hit. Of some 79,000 tested, about 15% had one in any assay.
Quantity measured: growth inhibition (%)

Compound	Quantity measured	Number
C=CCOCn1cc(C)c(=O)[nH]c1=O	growth inhibition	17.4
Cc1ccc2cccnc2c1	growth inhibition	-4.6
CS(=O)(=O)OCC(O)C(O)C(OS(C)(=O)=O)C(O)COS(C)(=O)=O (centres undefined)	growth inhibition	1.75
C1CCC(C2CCCC[N-]2)[N-]C1.[Cl][Cu][Cl] (centres undefined)	growth inhibition	10.3
CCOC(=O)/C(O)=C(/C=N\C(=S)Nc1ccccc1Cl)C(=O)OCC	growth inhibition	-55.3
O=C(c1cccs1)N(C(=S)N1CCN(c2ccccc2)CC1)c1ccccc1	growth inhibition	-11.1
O=C1c2ccccc2C2CC1c1ccccc12 (centres undefined)	growth inhibition	-1.6
Nc1c(N=Nc2ccc(S(=O)(=O)O)cc2)cc2c3c(cccc13)CC2	growth inhibition	2.35
CCCCc1c(O)c(N=NC(=O)C[N+](C)(C)C)c2ccccc2c1O	growth inhibition	40.2
O=S(=O)(C(=C(c1ccccc1)c1ccccc1)c1ccccc1)c1ccccc1	growth inhibition	99.5
CC(=O)c1c(-c2ccc(Cl)cc2)c(C#N)c(=S)n(C2OC(CO)C(O)C(O)C2O)c1C (centres undefined)	growth inhibition	-6.3
CC1(C)C(=NN=C(N)N)C(C)(C)C1=NN=C(N)N	growth inhibition	-6.95
C=CCNC(=O)CC(C)(C)C	growth inhibition	12.3
CC1=CC(=O)c2c(C=O)c(O)c(O)c(C(C)C)c2C1=O	growth inhibition	93.4
CN(C)CCNC(=O)C(C)(C)Oc1ccc(C(=O)c2ccc(Cl)cc2)cc1Cl	growth inhibition	6.1
COc1cc2c(cc1O)C1Cc3cc(O)c(OC)cc3C(C2)N1C (centres undefined)	growth inhibition	-12.7
Cc1nccnc1N1CCCCC1	growth inhibition	-0.75
O=C1NC(N2CCCC(CO)C2)=N/C1=C\c1ccc(O)cc1 (centres undefined)	growth inhibition	2.05
Cc1cc(N/N=C/c2ccc(Cl)cc2)c2cc3c(cc2n1)OCO3	growth inhibition	-4.5
CN(C)C(N)=Nc1ncnc2ccccc12	growth inhibition	15.2
N#Cc1nc(C(O)c2ccccc2)oc1N (centres undefined)	growth inhibition	16.4
O=S(=O)(c1ccc(N=Cc2cccs2)cc1)c1ccc(N=Cc2cccs2)cc1	growth inhibition	-22.1
COC(=O)/C(C#N)=C/c1cccnc1	growth inhibition	-7.65
O=C1C2C(C(=O)N1c1cccc3ccccc13)C1(Cl)C(Cl)=C(Cl)C2(Cl)C1(Cl)Cl (centres undefined)	growth inhibition	93.7
